Provide the reported AC50 of each item.
- target or test system: Replicative DNA helicase DnaB (Mycobacterium tuberculosis, UniProt P9WMR3)
- Sequence (P9WMR3 whole entry): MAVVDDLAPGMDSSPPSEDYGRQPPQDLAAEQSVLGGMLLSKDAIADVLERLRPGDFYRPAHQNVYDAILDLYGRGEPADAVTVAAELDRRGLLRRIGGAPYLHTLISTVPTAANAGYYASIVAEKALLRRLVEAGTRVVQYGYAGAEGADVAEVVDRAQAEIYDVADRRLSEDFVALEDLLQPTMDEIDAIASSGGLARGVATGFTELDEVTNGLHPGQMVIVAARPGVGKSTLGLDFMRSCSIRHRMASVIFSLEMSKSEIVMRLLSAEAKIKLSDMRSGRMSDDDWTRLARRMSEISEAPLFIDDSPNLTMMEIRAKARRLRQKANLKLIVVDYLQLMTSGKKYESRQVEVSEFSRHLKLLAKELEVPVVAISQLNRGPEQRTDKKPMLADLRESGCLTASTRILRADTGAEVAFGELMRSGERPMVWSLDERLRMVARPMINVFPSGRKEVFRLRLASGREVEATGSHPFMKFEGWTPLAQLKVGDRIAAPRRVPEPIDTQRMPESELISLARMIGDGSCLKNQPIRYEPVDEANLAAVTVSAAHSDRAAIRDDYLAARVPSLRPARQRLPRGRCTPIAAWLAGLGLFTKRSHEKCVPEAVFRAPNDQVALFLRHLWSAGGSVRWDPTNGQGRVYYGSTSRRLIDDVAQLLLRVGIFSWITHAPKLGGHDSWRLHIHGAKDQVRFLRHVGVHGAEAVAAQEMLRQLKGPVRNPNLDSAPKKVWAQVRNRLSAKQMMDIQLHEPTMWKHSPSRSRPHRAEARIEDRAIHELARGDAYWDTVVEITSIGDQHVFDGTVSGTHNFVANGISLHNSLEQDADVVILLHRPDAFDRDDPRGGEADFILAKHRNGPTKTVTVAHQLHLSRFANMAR
- assay method text: DnaB intein splicing inhibitors, dose response, biochemical, cell-free fluorescence (AID 449749)
- Type: functional
Active and inactive are the calls of the source. Cut-off read from the data, not from the text of the source: actives have a measured AC50 and inactives only a lower limit.

Query: Quick check: AC50 on Replicative DNA helicase DnaB (Mycobacterium tuberculosis, UniProt P9WMR3), item CC(C)[n+]1ccn(C2=C([N-]S(=O)(=O)c3ccccc3)C(=O)c3ccccc3C2=O)c1 ?
Reply: 12.3 µM (active)

Query: Quick check: AC50 on Replicative DNA helicase DnaB (Mycobacterium tuberculosis, UniProt P9WMR3), item Cc1cccc(CS(=O)(=O)c2ncc(Cl)c(C(=O)Nc3ccc(F)cc3)n2)c1 ?
Reply: 3.25 µM (active)

Query: Quick check: AC50 on Replicative DNA helicase DnaB (Mycobacterium tuberculosis, UniProt P9WMR3), item COC(=O)c1ccc(C(c2c(C)n[nH]c2O)c2c(C)n[nH]c2O)cc1 ?
Reply: 3.35 µM (active)

Query: Quick check: AC50 on Replicative DNA helicase DnaB (Mycobacterium tuberculosis, UniProt P9WMR3), item O=[N+]([O-])c1cccc(-c2cc(O)n[nH]2)c1 ?
Reply: 7.14 µM (active)

Query: Quick check: AC50 on Replicative DNA helicase DnaB (Mycobacterium tuberculosis, UniProt P9WMR3), item COc1ccc(OCc2cc(C(=O)NC3CCOC(C)(C)C3)no2)c2ccccc12 (stereo not given) ?
Reply: 4.88 µM (active)
